assay-summary: Embryo/fetal developmental toxicity study in rats
assay-context: female, rat, in vivo; pregnant rats, last day of dosing, 35 mg/kg/day; read-out: mean AUC0-24 hr at the NOAEL
parameter-measured: AUC(0-t) (ng·h/mL)
Give bare numbers, in ng·h/mL.

Incoming: State the recorded AUC(0-t) for this entry: C[C@H](Nc1ncnc2[nH]cnc12)c1cc2cccc(Cl)c2c(=O)n1-c1ccccc1
Outgoing: 62200

---

assay-summary: Pharmacokinetics in cynomolgus monkeys
Format: in vivo, monkey
assay-context: monkey, in vivo; cynomolgus monkeys, IV 1 mg/kg
parameter-measured: AUC(0-inf) (ng·h/mL)
Give bare numbers, in ng·h/mL.

Incoming: State the recorded AUC(0-inf) for this entry: C[C@H](Nc1ncnc2[nH]cnc12)c1cc2cccc(Cl)c2c(=O)n1-c1ccccc1 [Compound 292]
Outgoing: 2380

---

assay-summary: Pharmacokinetics in cynomolgus monkeys
Type: in vivo, monkey
assay-context: monkey, in vivo; cynomolgus monkeys, PO 5 mg/kg suspension
parameter-measured: Cmax (ng/mL)
Give bare numbers, in ng/mL.

Incoming: State the recorded Cmax for this entry: C[C@H](Nc1ncnc2[nH]cnc12)c1cc2cccc(Cl)c2c(=O)n1-c1ccccc1
Outgoing: 1330

---

assay-summary: Pharmacokinetics in cynomolgus monkeys
Assay type: in vivo, monkey
assay-context: monkey, in vivo; cynomolgus monkeys, IV 1 mg/kg
parameter-measured: AUC(0-t)

Incoming: State the recorded AUC(0-t) for this entry: C[C@H](Nc1ncnc2[nH]cnc12)c1cc2cccc(Cl)c2c(=O)n1-c1ccccc1 [Compound 292]
Outgoing: 2.36 µg·h/mL

---

assay-summary: Clinical study in healthy adult subjects: pharmacokinetics
Type: in vivo, human
assay-context: human, plasma, single oral dose 20 mg, mean (%CV)
parameter-measured: Cmax (ng/mL)
Answers are plain numbers, in ng/mL.

Incoming: State the recorded Cmax for this entry: C[C@H](Nc1ncnc2[nH]cnc12)c1cc2cccc(Cl)c2c(=O)n1-c1ccccc1
Outgoing: 997

---

assay-summary: Clinical study in healthy adult subjects: pharmacokinetics
Type: in vivo, human
assay-context: human, plasma, po, 10 mg, single oral dose 10 mg, mean (%CV), read-out: AUC(0-24)
parameter-measured: AUC(0-t) (ng·h/mL)
Give bare numbers, in ng·h/mL.

Incoming: State the recorded AUC(0-t) for this entry: C[C@H](Nc1ncnc2[nH]cnc12)c1cc2cccc(Cl)c2c(=O)n1-c1ccccc1 [Compound 292]
Outgoing: 891

---

assay-summary: Clinical study in healthy adult subjects: pharmacokinetics
Type: in vivo, human
assay-context: human, plasma, po, 1 mg, single oral dose 1 mg, mean (%CV), read-out: T1/2 (converted)
parameter-measured: half-life (h)
Numbers only, in h.

Incoming: State the recorded half-life for this entry: C[C@H](Nc1ncnc2[nH]cnc12)c1cc2cccc(Cl)c2c(=O)n1-c1ccccc1
Outgoing: 3.52

---

assay-summary: Clinical study in healthy adult subjects: pharmacokinetics
Format: in vivo, human
assay-context: human, plasma, single oral dose 2 mg, mean (%CV)
parameter-measured: Cmax (ng/mL)
Numbers only, in ng/mL.

Incoming: State the recorded Cmax for this entry: C[C@H](Nc1ncnc2[nH]cnc12)c1cc2cccc(Cl)c2c(=O)n1-c1ccccc1 [Compound 292]
Outgoing: 78.8

---

Please go through the items and note down their pEC50.
System: B cell
assay-summary: B cell proliferation
Format: cell-based
pEC50: −log10 of the molar value.

Consider the worked cases shown below.
Cc1cccc2cc(Cn3nc(-c4cccc(O)c4)c4c(N)ncnc43)n(-c3ccccc3Cl)c(=O)c12 [Compound 96] | > 7.00
Cc1cccc2cc(Cn3nc(I)c4c(N)ncnc43)n(-c3ccccc3OCCN3CCOCC3)c(=O)c12 [Compound 103] | > 6.00
CC(=O)Nc1nc2ccc(-c3nn(Cc4cc5cccc(C)c5c(=O)n4-c4cccc(F)c4)c4ncnc(N)c34)cc2s1 [Compound 178] | > 7.00
Cc1cccc2cc([C@H](C)Nc3ncnc4[nH]cc(C#N)c34)n(C3CC3)c(=O)c12 [Compound 289] | > 7.00
Cc1cccc2cc(Cn3nc(C#N)c4c(N)ncnc43)n(-c3ccccc3F)c(=O)c12 [Compound 169] | > 6.00
Cc1ccccc1-n1c(Cn2nc(-c3cc(O)cc(F)c3)c3c(N)ncnc32)cc2ccccc2c1=O [Compound 33] | > 7.00

Please find the next compound below.
Incoming: State the recorded pEC50 for this entry: CC(=O)Nc1nc2ccc(-c3nn(Cc4cc5cccc(C)c5c(=O)n4C(C)C)c4ncnc(N)c34)cc2s1 [Compound 154]
Outgoing: > 7.00
